- ASSAY_DETAILS: yeast AGP1-GFP level changes, GLN3 branch – cell-based, multiplex flow cytometry, S. cerevisiae, primary screen (AID 1887);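 note: AGP1-GFP fusion strain of S. cerevisiae within a five-strain barcoded multiplex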
- CONDITION_DETAILS: 3 h, at 10 µM, hits give high values
Results filed as inconclusive are left out.
# GFP response, % of DMSO per entry
REPORTED_METRIC: GFP response, % of DMSO (%)

COMPOUND: CN1CCCN=C1COC(=O)C(O)(c1ccccc1)C1CCCCC1 (stereo not drawn)
DATA_VALUE: 96.5
//
COMPOUND: COC(=O)C1=C(C)N(Cc2ccco2)C(=O)/C1=C\c1ccc([N+](=O)[O-])cc1
DATA_VALUE: 96.2
//
COMPOUND: CCCN1CCC(NC(=O)Nc2ccc(Br)cc2)CC1
DATA_VALUE: 102
//
COMPOUND: CN(C)CC/C=C1\c2ccccc2COc2ccccc21
DATA_VALUE: 109
//
COMPOUND: O=C(O)CCCCCCNC(=O)c1cncc(O)c1
DATA_VALUE: 115
//
COMPOUND: Cc1ccnc2c1NC(=O)c1cccnc1N2C1CC1
DATA_VALUE: 99.4
//
COMPOUND: CCCCC[C@H](O)/C=C/C1=C(CCCCCCC(=O)O)C(=O)CC1
DATA_VALUE: 103
//
COMPOUND: COc1ccc2c(c1)c(=O)oc1cc3occ(C(C)(C)C)c3cc12
DATA_VALUE: 108
//
COMPOUND: COc1ccc2c(c1)C=CC1(O2)N(CCO)c2ccccc2C1(C)C (stereo not drawn)
DATA_VALUE: 117
//
COMPOUND: COc1cccc(-n2cc(CNCc3c(C(=O)N(C)C)nc4ccc(Cl)cn34)cn2)c1
DATA_VALUE: 99.9
//
COMPOUND: Cc1[nH]nc(-c2ccc(O)cc2O)c1Oc1ccccc1
DATA_VALUE: 103
//
COMPOUND: COc1ccc(NC(=S)N2CCN(CCN3C(=O)c4cccc5cccc(c45)C3=O)CC2)cc1
DATA_VALUE: 91.9
//
COMPOUND: O=C1Cc2ccccc2C(c2ccccc2)N1 (stereo not drawn)
DATA_VALUE: 102

---

- ASSAY_DETAILS: Nile Red efflux blockade in pump-expressing yeast – validation compound set, multiplex, phenotypic, pilot screen (AID 588506);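 note: Nile Red retained in cells so higher fluorescence means more efflux inhibition; 0 = negative control wells and 1 = enniatin B 25 µM full block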
- CONDITION_DETAILS: S. cerevisiae pump-expressing triplex, Nile Red efflux flow cytometry; at 10 µM; the pumps come from Candida albicans
Activity calls are given as the source filed them.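 How the source made its calls: active means efflux inhibition above 0.42, the validation set average plus 4 SD; inconclusive means no clear call, values can overlap the other calls; inactive means the rest.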
Outcome codes: active, inactive

MOLECULE: CC(=O)Nc1ccccc1C(=O)C(=O)Nc1ccccc1
LABEL: inactive
--
MOLECULE: COc1ccc(N2C(=O)C3C(C2=O)C(C(=O)c2ccccc2)N2CCCC32)cc1 (stereo not drawn)
LABEL: inactive
--
MOLECULE: OC(CCN1CCCC1)(c1ccccc1)C1CCCCC1 (stereo not drawn)
LABEL: inactive
--
MOLECULE: O=[N+]([O-])c1ccc(O)c2ncccc12
LABEL: inactive
--
MOLECULE: CCOc1ccc(C(NC(C)=O)c2ccc(OC)c(OC)c2)cc1 (stereo not drawn)
LABEL: inactive
--
MOLECULE: O=C(O)c1ccc(-c2ccc(O)c(F)c2)cc1
LABEL: inactive
--
MOLECULE: O=c1ccc2c(o1)/C(=C/C=C(Cl)Cl)CCC2
LABEL: inactive
--
MOLECULE: O=C(c1ccc(Cl)cc1)C1CCCN(C(=O)/C=C/c2ccccn2)C1 (stereo not drawn)
LABEL: inactive
--
MOLECULE: Oc1[nH]c2ccccc2c1C1=NCCCC1
LABEL: inactive
--
MOLECULE: CCN1CCN(C(=S)c2ccc(OC)cc2)CC1
LABEL: inactive
--
MOLECULE: COc1ccc(-c2cc(=Nc3ccc(C)cc3)c3ccccc3o2)cc1
LABEL: inactive
--
MOLECULE: Cc1nc(NCc2ccco2)c(C#N)c2c1COC(C)(C)C2
LABEL: inactive
--
MOLECULE: CC(C)OC(=O)CC12CN3CN(C1)CC(CC(=O)OC(C)C)(C3)C2=O
LABEL: inactive
--
MOLECULE: COC1CCN(Cc2cn(Cc3ccccc3)nc2-c2cc3ccccc3o2)CC1
LABEL: inactive
--
MOLECULE: Cc1cccc(Nc2ccccc2C(=O)O)c1C
LABEL: inactive
--
MOLECULE: COCC(C)NC(=O)c1ccc(CN2CCc3ccccc3C2)cc1 (stereo not drawn)
LABEL: inactive
--
MOLECULE: CC(C)=CCC/C(C)=C/CC/C(C)=C/CC/C(C)=C/CC1=C(C)C(=O)c2ccccc2C1=O
LABEL: inactive
--
MOLECULE: O=C1CCc2cc(OCCCCc3nnnn3C3CCCCC3)ccc2N1
LABEL: inactive
--
MOLECULE: O=C(N1CCCC1)C12CC3CC(C1)CC(C(=O)N1CCCC1)(C3)C2
LABEL: inactive
--
MOLECULE: CC(=O)N1CCN(c2ccc(OC[C@H]3CO[C@](Cn4ccnc4)(c4ccc(Cl)cc4Cl)O3)cc2)CC1
LABEL: active
--
MOLECULE: Cc1cccc(CN2CCN(C(c3ccccc3)c3ccc(Cl)cc3)CC2)c1 (stereo not drawn)
LABEL: active
--
MOLECULE: CC(=O)c1cccc(NC(=O)N[C@@H](CC(C)C)C(=O)O)c1
LABEL: inactive
--
MOLECULE: O=C(O)[C@H](Cc1ccccc1)NC(=O)N1CCC(Cc2ccccc2)CC1
LABEL: inactive

---

# GFP response, % of DMSO per entry
- ASSAY_DETAILS: yeast AGP1-GFP level changes, GLN3 branch – cell-based, multiplex flow cytometry, S. cerevisiae, primary screen (AID 1887);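 note: AGP1-GFP fusion strain of S. cerevisiae within a five-strain barcoded multiplex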
- CONDITION_DETAILS: 3 h, at 10 µM, hits give high values
Results filed as inconclusive are left out.
REPORTED_METRIC: GFP response, % of DMSO (%)

COMPOUND: Oc1ccccc1OCCOc1ccccc1OCCOc1ccccc1O
REPORTED_METRIC: GFP response, % of DMSO
DATA_VALUE: 110
//
COMPOUND: COc1cc(SC)ccc1C(=O)NC(C)C
REPORTED_METRIC: GFP response, % of DMSO
DATA_VALUE: 94.9
//
COMPOUND: COc1ccc(CC(=O)Nc2cccc(C(=O)Nc3ccccc3C(=O)O)c2)cc1OC
REPORTED_METRIC: GFP response, % of DMSO
DATA_VALUE: 108
//
COMPOUND: CCOC(=O)C1CCCN(Cc2nc(Cc3cccc(F)c3)no2)C1 (centres undefined)
REPORTED_METRIC: GFP response, % of DMSO
DATA_VALUE: 87.2
//
COMPOUND: O=C(NC1CCCCC1)N1CCc2[nH]c3ccccc3c2C1
REPORTED_METRIC: GFP response, % of DMSO
DATA_VALUE: 93.1
//
COMPOUND: COc1ccc(C(=O)CCN2CCc3cc(OC)c(OC)cc3C2)cc1
REPORTED_METRIC: GFP response, % of DMSO
DATA_VALUE: 99.7
//
COMPOUND: CCCCOC(=O)c1ccc(N)cc1
REPORTED_METRIC: GFP response, % of DMSO
DATA_VALUE: 105
//
COMPOUND: COc1cc(NC(=S)NN2CCN(C)CC2)cc(OC)c1OC
REPORTED_METRIC: GFP response, % of DMSO
DATA_VALUE: 106
//
COMPOUND: O=C1NC(=O)C(c2ccccc2)(c2ccccc2)N1
REPORTED_METRIC: GFP response, % of DMSO
DATA_VALUE: 99.6
//
COMPOUND: COc1ccc(O)c(C2=Nc3ccccc3N=C(c3ccccc3)C2)c1
REPORTED_METRIC: GFP response, % of DMSO
DATA_VALUE: 85.2
//
COMPOUND: Cc1ccc(C)c(OCCCC(C)(C)C(=O)O)c1
REPORTED_METRIC: GFP response, % of DMSO
DATA_VALUE: 89.6
//
COMPOUND: COc1cc(/C=C/C(=O)CC(=O)/C=C/c2ccc(O)c(OC)c2)ccc1O
REPORTED_METRIC: GFP response, % of DMSO
DATA_VALUE: 95.1
//
COMPOUND: O=C(CCc1c[nH]c2ccccc12)NCc1ccco1
REPORTED_METRIC: GFP response, % of DMSO
DATA_VALUE: 106
//
COMPOUND: Cc1ccc2c(ccc(=S)n2C)c1
REPORTED_METRIC: GFP response, % of DMSO
DATA_VALUE: 102
//
COMPOUND: CCC(C)NCCOCCOc1ccc(Cl)cc1Br (centres undefined)
REPORTED_METRIC: GFP response, % of DMSO
DATA_VALUE: 103
//
COMPOUND: CC(=O)OC1c2c(ccc3ccc(=O)oc23)OC(C)(C)C1OC(=O)CC(C)C (centres undefined)
REPORTED_METRIC: GFP response, % of DMSO
DATA_VALUE: 94.2
//
COMPOUND: CC(C(=O)O)c1ccc(-c2ccccc2)c(F)c1 (centres undefined)
REPORTED_METRIC: GFP response, % of DMSO
DATA_VALUE: 84.8
//
COMPOUND: C[C@H](CCC(=O)O)[C@H]1CC[C@H]2[C@@H]3C(=O)C[C@@H]4CC(=O)CC[C@]4(C)[C@H]3CC(=O)[C@]12C
REPORTED_METRIC: GFP response, % of DMSO
DATA_VALUE: 119
//
COMPOUND: COc1ccccc1OCC(=O)O
REPORTED_METRIC: GFP response, % of DMSO
DATA_VALUE: 103
//
COMPOUND: Cc1cccc(Oc2coc3cc(OC(=O)c4cncc(Br)c4)ccc3c2=O)c1
REPORTED_METRIC: GFP response, % of DMSO
DATA_VALUE: 100
//
COMPOUND: O=C(Nc1ccc(F)c([N+](=O)[O-])c1)c1ccc2c(c1)OCCO2
REPORTED_METRIC: GFP response, % of DMSO
DATA_VALUE: 100
//
COMPOUND: COc1ccc(C2=NOC(COc3ccc4c(C)cc(=O)oc4c3)C2)c(OC)c1 (centres undefined)
REPORTED_METRIC: GFP response, % of DMSO
DATA_VALUE: 91.3
//
COMPOUND: COc1cc2cc(C)nc(Cc3cccc4ccccc34)c2cc1OC
REPORTED_METRIC: GFP response, % of DMSO
DATA_VALUE: 97.7
//
COMPOUND: COc1cccc2c(O)cc(=O)n(C)c12
REPORTED_METRIC: GFP response, % of DMSO
DATA_VALUE: 100
